# Tested on: Vero E6-GFP cells
# test protocol: in vitro
# Format: cell-based, African green monkey
# experimental conditions: read-out: Vero E6-GFP CC50; cell viability, 2 μM CP100356
reported endpoint: CC50

- CC(C)C[C@H](NC(=O)OCc1ccccc1)C(=O)N[C@@H](CC1CCNC1=O)C(O)S(=O)(=O)O (stereo partly shown) [GC376, reference compound]: > 100 µM

====

# maps each entry to its IC50
# assay target: UniProt P0DTD1
# test protocol: biochemical
# experimental conditions: unwinding IC50, without BSA/TCEP
reported endpoint: IC50 (µM)

* COc1c(O)cc(O)c2c(=O)cc(-c3ccccc3)oc12 | 24.9
* COc1cc(O)c2c(=O)c(-c3ccc(O)cc3)coc2c1 | 11.5

====

# assay target: UniProt P0DTD1
# experimental conditions: without BSA/TCEP; highest tested concentration
reported endpoint: unwinding, percentage of control at the highest tested compound concentration (%)

- C[C@@H]1O[C@@H](OC[C@H]2O[C@@H](Oc3c(-c4ccc(O)c(O)c4)oc4cc(O)cc(O)c4c3=O)[C@H](O)[C@@H](O)[C@@H]2O)[C@H](O)[C@H](O)[C@H]1O [rutin]: 75
- Oc1ccc(/C=C/c2cc(O)cc(O)c2)cc1 [resveratrol]: 64
- O=c1cc(-c2ccc(O)cc2)oc2cc(O[C@@H]3O[C@H](CO)[C@@H](O)[C@H](O)[C@H]3O)cc(O)c12 [apigenin-7-O-glucoside]: 100
- O=C(O)c1cc(O)c(O)c(O)c1 [gallic acid]: 89

====

# Test system: SARS-CoV-2
# test protocol: microbe, parasite or virus in culture
# Format: cell-based
# experimental conditions: […]; highest tested concentration
reported endpoint: SARS-CoV-2, percentage of control at the highest tested compound concentration

- O=c1c(O)c(-c2cc(O)c(O)c(O)c2)oc2cc(O)cc(O)c12: >100 (100%)
- O=c1c(O)c(-c2ccc(O)cc2)oc2cc(O)cc(O)c12: >100 (100%)
- COc1cc(O)c2c(=O)c(-c3ccc(O)cc3)coc2c1: >100 (100%)
- COc1ccc(-c2cc(=O)c3c(O)cc(O)cc3o2)cc1O: >100 (100%)
- O=c1cc(-c2ccccc2)oc2cc(O)c(O)c(O)c12: >100 (100%)

====

# assay target: SARS-CoV-2 nsp13 (Severe acute respiratory syndrome coronavirus 2, UniProt P0DTD1)
# test protocol: biochemical
# experimental conditions: unwinding IC50, without BSA/TCEP
pIC50: −log10 of the molar value.
# maps each entry to its pIC50
reported endpoint: pIC50

• Oc1ccc(/C=C/c2cc(O)cc(O)c2)cc1 = < 4.52
• O=C(O)c1cc(O)c(O)c(O)c1 = < 4.52
• O=c1cc(-c2ccc(O)cc2)oc2cc(O[C@@H]3O[C@H](CO)[C@@H](O)[C@H](O)[C@H]3O)cc(O)c12 [apigenin-7-O-glucoside] = < 4.52
